details: 298.15 K; 101.33 kPa; Liquid
Measure name: mass density (kg/m3)

A: CCCCCCC
B: OCC(F)(F)F
Problem: Would you mind telling me which has the lower recorded mass density between A and B ? Please indicate the selected item by its label.
Solution: A

###

details: 298.15 K; 101.33 kPa; Liquid
Measure name: mass density (kg/m3)

# Structure string, Measure unit, mass density
measured = [
    ("CC(C)O", "kg/m3", 781.4),
    ("CO", "kg/m3", 787),
    ("C1CCCCC1", "kg/m3", 774),
]
